molecular target: Human immunodeficiency virus type 1 integrase (Human immunodeficiency virus 1, UniProt Q7ZJM1); test: Concentration to inhibit 3' processing of wild type Human immuno deficiency virus-1 integrase
Sequence (Q7ZJM1 whole entry): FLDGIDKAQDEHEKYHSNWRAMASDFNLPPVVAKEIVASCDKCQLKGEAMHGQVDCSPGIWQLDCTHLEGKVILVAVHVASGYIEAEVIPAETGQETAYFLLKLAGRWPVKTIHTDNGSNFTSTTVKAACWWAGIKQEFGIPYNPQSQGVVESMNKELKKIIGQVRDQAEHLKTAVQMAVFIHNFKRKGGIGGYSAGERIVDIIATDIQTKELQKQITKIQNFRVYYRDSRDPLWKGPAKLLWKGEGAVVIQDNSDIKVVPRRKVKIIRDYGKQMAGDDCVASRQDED
pIC50: −log10 of the molar value.
measure.name: pIC50

In the examples that follow, each entry is paired with its recorded pIC50.
O=C(c1ccccc1)c1ccc(OCC(O)COc2ccc(C(=O)c3ccccc3)c(O)c2)cc1O : < 4.00
COC(=O)c1cc(NS(=O)(=O)c2ccc(NCc3cccnc3)c(N)c2)cc(C(=O)OC)c1 : < 4.00
O=C(N/N=C/c1ccc(O)cc1O)c1cc(C2CC2)[nH]n1 : 3.75

Here is the next item to consider.
Query: Respond only with pIC50 recorded for CCc1cc(/C=N/CC/N=C/c2cc(CC)sc2S)c(S)s1
Response: < 4.00

The measured values listed here are drawn from ChEMBL document CHEMBL1142702.
